system: HL-60; test: Cytotoxicity against human HL60 cells after 72 hrs by trypan blue exclusion assay; type: functional, cell-based; conditions: HL-60, 72 h
Simple rule here: IC50 less than 200 nM is Yes, otherwise No.

COc1ccc(/C=C/C(=O)c2ccc(OCCO[C@H]3O[C@@H]4O[C@]5(C)CC[C@H]6[C@H](C)CC[C@@H]([C@H]3C)[C@@]46OO5)cc2)cc1: Yes
CCOc1ccc(/C=C/C(=O)c2ccc(OCCO[C@H]3O[C@@H]4O[C@]5(C)CC[C@H]6[C@H](C)CC[C@@H]([C@H]3C)[C@@]46OO5)cc2)cc1: Yes
COc1ccc(/C=C/C(=O)c2ccc(OCCO[C@H]3O[C@@H]4O[C@]5(C)CC[C@H]6[C@H](C)CC[C@@H]([C@H]3C)[C@@]46OO5)cc2)cc1OC: No
C[C@H]1[C@@H](OCCOc2ccc(C(=O)/C=C/c3ccc(Br)cc3)cc2)O[C@@H]2O[C@]3(C)CC[C@H]4[C@H](C)CC[C@@H]1[C@@]24OO3: Yes
C[C@H]1[C@@H](OCCOc2ccc(C(=O)/C=C/c3ccccc3)cc2)O[C@@H]2O[C@]3(C)CC[C@H]4[C@H](C)CC[C@@H]1[C@@]24OO3: Yes
C[C@H]1[C@@H](OCCOc2ccc(C(=O)/C=C/c3ccccc3Cl)cc2)O[C@@H]2O[C@]3(C)CC[C@H]4[C@H](C)CC[C@@H]1[C@@]24OO3: Yes
C[C@H]1[C@H](OC(=O)COc2ccc(C(=O)/C=C/c3ccc(Br)cc3)cc2)O[C@@H]2O[C@]3(C)CC[C@H]4[C@H](C)CC[C@@H]1[C@@]24OO3: No
C[C@H]1[C@@H](OCCOc2ccc(C(=O)/C=C/c3ccc(Cl)cc3)cc2)O[C@@H]2O[C@]3(C)CC[C@H]4[C@H](C)CC[C@@H]1[C@@]24OO3: Yes

Q: A record lists COc1ccccc1/C=C/C(=O)c1ccc(OCCO[C@H]2O[C@@H]3O[C@]4(C)CC[C@H]5[C@H](C)CC[C@@H]([C@H]2C)[C@@]35OO4)cc1 . Is its IC50 below 200 nM?
Ans: Yes

Q: A record lists C[C@H]1[C@@H](OCCOc2ccc(C(=O)/C=C/c3ccc4c(c3)OCO4)cc2)O[C@@H]2O[C@]3(C)CC[C@H]4[C@H](C)CC[C@@H]1[C@@]24OO3 . Is its IC50 below 200 nM?
Ans: Yes
